# procedure-summary: soluble on expression in E. coli; label from the status in PepcDB or PDB records
measured-endpoint: soluble on expression in E. coli

Worked cases, answers included:
- sequence-content: "MSPEQSPFHAGELAIQERAGVREQVAGFGSRAIRTFMPDQHREFFALLSLLLVGSLDADGYPSASVLWGPPGFARSPEPTRLRIDNLPQADDPLAANLEAGTRLGILGLEWPTRRRNRMNGRVLARDGKGFTVGVEQSFGNCPKYIQARSHQPVSRIASPALQGEGLDPRWLSLVSCSDTLFIASQHADPLRGGVDVSHRGGPPGFLRLGADGRLWLPDYAGNRLFNTLGNLLQDPRCGLLFIDFDNGDLLHLHAEAELFWPGSQPSIPWPAGAERLLALRPAGWRWRRGRLPLAFGEPQPSPFLPAGES"
  measurement: "not soluble"
- sequence-content: "MSDLHTKLGSGMNKLQEGIEQGKMKLQVAQEIAQLKKGMQVQMQKKAEVLLEVGQQVYVQLRGSGVNEASLKEMIAPVQEFDVAIYQARKRIVELQKQQGEKATCECGGPLSINDKFCGSCGKPNPMLTVENEGETVNCISCNEHIDKNSTYCPVCGIKQSGE"
  measurement: "not soluble"
- sequence-content: "GIDPFTMAKKDGAIEVEGRVVEPLPNAMFRIELENGHKVLAHISGKMRQHYIRILPEDRVVVELSPYDLSRGRIVYRYK"
  measurement: "soluble"
- sequence-content: "GMKLYKLLILDIDGTLRDEVYGIPESAKHAIRLCQKNHCSVVICTGRSMGTIQDDVLSLGVDGYIAGGGNYIQYHGELLYNQSFNQRLIKEVVCLLKKREVAFSIESQEKVFMNQKAKEIFETMNQLKGTNSCINKQHIQEKITYENNIEEYKSQDIHKICLWSNEKVFDEVKDILQDKMELAQRDISSQYYEIIQKDFHKGKAIKRLQERLGVTQKETICFGDGQNDIVMFQASDVTIAMKNSHQQLKDIATSICEDIFDNGIYKELKRRNII"
  measurement: "soluble"
- sequence-content: "MSFTPELNMAVCEFNLDSGCNAKESLIEMANNKISLETFKEHNIKALTMKYVNSESMMWEARKIVRIISRLEADEHQSRVAPKRSRSPGSTSPSASNSSSSSSELSFDMFSSKRTVPMKVTSKPKRVIAQASRTMKPHQQESRQESAEKDRANDEKLKKFIESRKLKEQAKKAANIQKCNEVKEAVMFPAKRMKKRQLEQYAYRFK"
  measurement: "not soluble"
- sequence-content: "MGSGRTWRELKEVFPKLARAKYYTRARYGYCRGYEAVDFVESVRWYYYVLSGLVVLDRPEAKHLEHHHHHH"
  measurement: "not soluble"

For record MGSDKIHHHHHHMDIRQLKTFIAIAEHGTFAKAADAVGLTPSAVSQQIQALESEVRGELFDRATRPIMLNGHGLQMLEAARTLVRDADNIIDAISGRAVSGTFTIGSVRSSALSLLPLSIVALKADYPDLRIKLQVANTDELLKDVMSGRLDCAMVAEYSGIPSALRWQPFINEPLLVIGPNGTPKMSGFDMLSKLPYVRFNSKFRLAQIIETELAKTRIVPNLIAEIDTIASVVSCVIHGLGVSVVPWIALRDIAAPIVAVQFGEPQILRPIGLLERRSGTRAQIIDRLHQNLARLSDPYGIPR the listed soluble on expression in E. coli is not soluble

For record TESGTAAQDPEALAAEIGPVKQVSLGEQIDAALAQQGEQLFNTYCTACHRLDERFIGPALRDVTKRRGPVYIMNVMLNPNGMIQRHPVMKQLVQEYGTMMTDMALSEEQARAILEYLRQVAENQ the listed soluble on expression in E. coli is soluble

For record MKLIITSGGTTEPIDAVRGITNHSTGQLGKLITERFLQYHHDVTLVTTKTATKPLPNKRLRIIEVETVNDLMAALKDQVPHHDILIHSMAVSDYTPVYMTDLEQVSQADNLNCFLCEHNSEPKISSASDYQVLFLKKTPKVISYVKQWNPNIKLVGFKLLVNVPQEELIKVARASLAKNHADYILANDLVDIQTGMHKALLISNNEVASADTKEAIADLLYERMTKHD the listed soluble on expression in E. coli is not soluble

For record MTPEAPYASLTEIEHLVQSVCKSYRETCQLRLEDLLRQRSNIFSREEVTGYQRKSMWEMWERCAHHLTEAIQYVVEFAKRLSGFMELCQNDQIVLLKAGAMEVVLVRMCRAYNADNRTVFFEGKYGGMELFRALGCSELISSIFDFSHSLSALHFSEDEIALYTALVLINAHRPGLQEKRKVEQLQYNLELAFHHHLCKTHRQSILAKLPPKGKLRSLCSQHVERLQIFQHLHPIVVQAAFPPLYKELFST the listed soluble on expression in E. coli is soluble

For record MGHHHHHHSHMIKRSSECNPLLQEPIASAQFGATAGTECRKSVPCGWERVVKQRLFGKTAGRFDVYFISPQGLKFRSKSSLANYLHKNGETSLKPEDFDFTVLSKRGIKSRYKDCSMAALTSHLQNQSNNSNWNLRTRSKCKKDVFMP the listed soluble on expression in E. coli is soluble

For record MGSDKIHHHHHHMIAKIIMGGGKMIKRVKTGIPGMDEILHGGIPERNIVLISGGPGTGKTIFSQQFIWNGLQMGEPGIYVALEEHPVQVKKNMEVFGWNVDPFEKEGKFAIVDAFTGGIGEYAEKEKYVVRDIDDVRELAEVLKRAVRETQAKRVVIDSVTTLYITKPAMARSIIFQLKRILSGLGCTSLFVSQVSVTEKGFGGPGVEHGVDGIIRLDLDEIDGELKRSLIVWKMRGTSHSMRRHPFEITDKGIVIYPSEGGEGR the listed soluble on expression in E. coli is not soluble

For record MLKLGVIGTGAISHHFIEAAHTSGEYQLVAIYSRKLETAATFASRYQNIQLFDQLEVFFKSSFDLVYIASPNSLHFAQAKAALSAGKHVILEKPAVSQPQEWFDLIQTAEKNNCFIFEAARNYHEKAFTTIKNFLADKQVLGADFNYAKYSSKMPDLLAGQTPNVFSDRFAGGALMDLGIYPLYAAVRLFGKANDATYHAQQLDNSIDLNGDGILFYPDYQVHIKAGKNITSNLPCEIYTTDGTLTLNTIEHIRSAIFTDHQGNQVQLPIQQAPHTMTEEVAAFAHMIQQPDLNLYQTWLYDAGSVHELLYTMRQTAGIRFEAEK the listed soluble on expression in E. coli is soluble
